Where do these numbers come from? They come from the supplement of paper PMC7125110.

B1: glmS ribozyme (parent)
chain: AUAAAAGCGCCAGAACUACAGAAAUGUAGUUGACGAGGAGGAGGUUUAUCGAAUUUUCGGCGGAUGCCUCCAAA

# Variants of: B1
# assayRemarks: self-cleavage kobs at 160 uM GlcN6P; higher = faster cleavage; RNA array
# conditionSummary: with glucosamine-6-phosphate
Fewer inactive variants are shown than the library holds.
Below, each entry is listed alongside its reported self-cleavage kobs at 160 uM GlcN6P.
Write it as a number; the unit s⁻¹ goes unstated.

Answered cases to consult:
| mutationString | self-cleavage kobs at 160 uM GlcN6P / s⁻¹ |
| --- | --- |
| A52U C68U | 1.96e-05 |
| G13C A14G | 4.16e-05 |
| A53G U55A | 0.00332 |
| G29U U56A | 9.32e-05 |
| C11U A39U | 4.38e-05 |
| U30C A64G | 4.88e-05 |
| G38A U54G C68A | 5.08e-05 |
| U31G U56A | 0.000307 |
| C50G U54C | 5.92e-05 |
| U46A U47A | 0.000426 |

q: Determine from records and report self-cleavage kobs at 160 uM GlcN6P for A15G G41U
a: 0.000282

q: # return recorded self-cleavage kobs at 160 uM GlcN6P for entry G40U C70G
a: 4.28e-05

q: Fill in self-cleavage kobs at 160 uM GlcN6P for record U47A U56G
a: 0.000981

q: Note self-cleavage kobs at 160 uM GlcN6P for the variant shown: U31G A53C
a: 0.000223

q: Identify the reported self-cleavage kobs at 160 uM GlcN6P for the following entry. A14U U30G
a: 0.000282

q: Answer with the recorded self-cleavage kobs at 160 uM GlcN6P of A12U C68G only.
a: 5.38e-05

q: Answer with the recorded self-cleavage kobs at 160 uM GlcN6P for the variant listed here: G29U A42G
a: 0.000486

q: Determine its reported self-cleavage kobs at 160 uM GlcN6P: G40A A53U
a: 0.000422
